biological target: 5-hydroxytryptamine receptor 2C (Homo sapiens); experiment: Functional activity against human 5-hydroxytryptamine 2C receptor expressed in CHO cells using fluorometric imaging plate reader
Sequence (P28335 whole entry): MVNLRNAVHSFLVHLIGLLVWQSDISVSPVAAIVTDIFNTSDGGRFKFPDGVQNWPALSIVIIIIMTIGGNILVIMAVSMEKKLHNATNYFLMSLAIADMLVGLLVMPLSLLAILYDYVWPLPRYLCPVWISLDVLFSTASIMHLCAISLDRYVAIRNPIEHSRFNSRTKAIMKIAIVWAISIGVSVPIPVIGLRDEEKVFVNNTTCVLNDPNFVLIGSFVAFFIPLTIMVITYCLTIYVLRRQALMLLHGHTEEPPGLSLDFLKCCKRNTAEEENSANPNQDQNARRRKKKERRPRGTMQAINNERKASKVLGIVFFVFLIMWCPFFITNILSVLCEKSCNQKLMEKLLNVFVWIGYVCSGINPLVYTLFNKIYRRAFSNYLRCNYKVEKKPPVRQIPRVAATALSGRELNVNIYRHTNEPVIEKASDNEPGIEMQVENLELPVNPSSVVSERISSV
For each record, write down the corresponding pEC50.
Give bare numbers, as −log10 of the molar value.

The following compounds have reported results that may help.
{"SMI": "CSc1cc2c(cc1F)CCN2C[C@H](C)N", "pEC50": 8.17}
{"SMI": "CSc1ccc2c(c1)N(C[C@H](C)N)CC2", "pEC50": 7.59}

Hi there! I need pEC50 for each item below, if you can.
1. C[C@H](N)Cn1ccc2cc(F)c(Cl)cc21
2. C[C@H](N)CN1CCc2ccc3c(c21)CCCO3
3. C[C@H](N)CN1CCc2ccc(Br)cc21
4. C[C@H](N)CN1CCc2cc(F)c(I)cc21
5. C[C@H](N)CN1CCc2ccc3c(c21)CCO3
6. CCSc1cc2c(cc1F)CCN2C[C@H](C)N

Given back:
[7.74, 7.55, 7.36, 7.19, 8.35, 7.68]

Batch request: pEC50 for each of the following compounds.
1. C[C@H](N)CN1CCc2cc(F)c(Cl)cc21
2. CCSc1ccc2c(c1)N(C[C@H](C)N)CC2
3. C[C@H](N)CN1CCc2ccc(Cl)cc21

Given back:
7.51
7.40
7.36

Asked: Find the recorded pEC50 belonging to `C[C@H](N)CN1CCc2cc(F)c(C(F)(F)F)cc21` and report it.
Given back: 6.89

----------
molecular target: 5-hydroxytryptamine receptor 2A (Homo sapiens); assay: Affinity for human 5-hydroxytryptamine 2A receptor expressed in mammalian cell line
Sequence (P28223 whole entry): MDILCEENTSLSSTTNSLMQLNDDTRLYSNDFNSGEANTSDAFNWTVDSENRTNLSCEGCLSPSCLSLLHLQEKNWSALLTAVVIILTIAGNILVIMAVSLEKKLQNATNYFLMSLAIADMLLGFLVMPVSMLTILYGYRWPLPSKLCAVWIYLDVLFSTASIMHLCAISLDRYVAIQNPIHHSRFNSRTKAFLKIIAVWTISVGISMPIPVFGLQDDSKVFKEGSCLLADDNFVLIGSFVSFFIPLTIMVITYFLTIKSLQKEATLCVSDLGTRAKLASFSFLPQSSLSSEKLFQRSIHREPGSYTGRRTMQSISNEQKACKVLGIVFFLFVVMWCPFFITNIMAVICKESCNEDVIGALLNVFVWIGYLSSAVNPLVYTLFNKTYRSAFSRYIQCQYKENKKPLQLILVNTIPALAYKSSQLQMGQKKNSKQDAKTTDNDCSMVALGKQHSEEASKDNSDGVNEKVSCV
QUANTITY: Ki (nM)
Numbers only, in nM.

{"SMI": "CSc1cc2c(cc1F)CCN2C[C@H](C)N", "NUMERIC_READOUT": 53}

Your task in this section: give Ki for each listed record.
1. C[C@H](N)Cn1ccc2cc(F)c(Cl)cc21
2. C[C@H](N)CN1CCc2cc(F)c(C(F)(F)F)cc21

Given back:
38
432

----------
Observed Ki for 5-hydroxytryptamine receptor 2C (Homo sapiens, UniProt P28335), reported per entry below.

Sample answers from the record:
{"SMI": "C[C@H](N)CN1CCc2ccc3c(c21)CCO3", "TARGET_OF_ASSAY": "5-hydroxytryptamine receptor 2C (Homo sapiens, UniProt P28335)", "Ki": "8.7 nM"}
{"SMI": "CSc1ccc2c(c1)N(C[C@H](C)N)CC2", "TARGET_OF_ASSAY": "5-hydroxytryptamine receptor 2C (Homo sapiens, UniProt P28335)", "Ki": "5.7 nM"}
{"SMI": "CSc1cc2c(cc1F)CCN2C[C@H](C)N", "TARGET_OF_ASSAY": "5-hydroxytryptamine receptor 2C (Homo sapiens, UniProt P28335)", "Ki": "3.2 nM"}
{"SMI": "CCSc1ccc2c(c1)N(C[C@H](C)N)CC2", "TARGET_OF_ASSAY": "5-hydroxytryptamine receptor 2C (Homo sapiens, UniProt P28335)", "Ki": "16 nM"}

Here's the next entry for you.
Asked: Any idea what Ki came out for `CCSc1cc2c(cc1F)CCN2C[C@H](C)N` on 5-hydroxytryptamine receptor 2C (Homo sapiens, UniProt P28335)?
Given back: 6.4 nM

Origin of the recorded values: ChEMBL document CHEMBL1148243
